Quick reference: DC50 of the listed items.
# assayed_system: IRAK4 (Homo sapiens)
# Construct: endogenous in cells; host or cells: THP-1 cells
# assay_procedure: LVL THP1 HTRF (THP1 Homogeneous Time Resolved Fluorescence)
# Type: cell-based
# experimental_setup: THP1 cells, 18 h incubation with compound, read-out: LVL THP1 HTRF EC50
endpoint_label: DC50 (nM)

- C[C@H](C#N)Nc1cc(-n2ncc3cc(C#N)cnc32)ncc1C(=O)N[C@H]1CC[C@H](CCN2CC[C@H]3[C@@H]2CCN3c2ccc(N3CCC(=O)NC3=O)c(Cl)c2)CC1: 47
- COc1cc([C@@]2(C)CCC(=O)NC2=O)ccc1N1CCN(CC[C@H]2CC[C@H](c3cn(-c4cnc(-n5ncc6cc(C#N)c(N)nc65)cc4N[C@H](C)C#N)nn3)CC2)C[C@H]1C (single isomer, unassigned) [P-305]: 0.2
- C[C@H](C#N)Nc1cc(Nc2ncc(C#N)cc2Cl)ncc1-n1cc([C@H]2CC[C@H](CCN3CCN(c4ccc(N5CCC(=O)NC5=O)cc4)[C@@H]4CCC[C@@H]43)CC2)nn1 (single isomer, unassigned): 1000
- C[C@H](C#N)Nc1cc(-n2ncc3cc(C#N)cnc32)ncc1-n1cc([C@H]2CC[C@H](CCN3C[C@@H]4CN(c5ccc([C@@]6(C)CCC(=O)NC6=O)cc5)C[C@@H]4C3)CC2)nn1 (single isomer, unassigned): 106

----------
# assayed_system: IRAK4 (Homo sapiens, UniProt Q9NWZ3)
# Construct: endogenous in cells; host or cells: THP-1 cells
# assay_procedure: LVL THP1 HTRF (THP1 Homogeneous Time Resolved Fluorescence)
# Type: cell-based
# experimental_setup: THP1 cells, 18 h incubation with compound, read-out: LVL THP1 HTRF EC50
Lab note: cut-off is 6 nM. Strictly less in DC50 is Condition met. Exactly 6 nM or more is Condition not met.

• CC1CN(CC[C@H]2CC[C@H](c3cn(-c4cnc(-n5ncc6cc(C#N)cnc65)cc4N[C@H](C)C#N)nn3)CC2)CCC1c1ccc([C@@]2(C)CCC(=O)NC2=O)cc1 (some centres unmarked) = Condition not met
• C[C@H](C#N)Nc1cc(-n2ncc3cc(C#N)c(N)nc32)ncc1-n1cc([C@H]2CC[C@H](CCN3CCN(c4ccc(N5CCC(=O)NC5=O)cn4)CC3)CC2)nn1 = Condition met
• C[C@H](C#N)Nc1cc(Nc2ncc(C#N)cc2Cl)ncc1-n1cc([C@H]2CC[C@H](CCN3CCN(c4ccc(C5CCC(=O)NC5=O)cc4)CC3)CC2)nn1 (some centres unmarked) = Condition met
• C[C@H](C#N)Nc1cc(-n2ncc3ccc(N4C[C@H]5C[C@@H]4CO5)nc32)ncc1-n1cc([C@H]2CC[C@H](CCN3CCC(c4ccc([C@@]5(F)CCC(=O)NC5=O)cc4)CC3)CC2)nn1 (single isomer, unassigned) = Condition not met
• C[C@H](C#N)Nc1cc(-n2ncc3cc(Cl)cnc32)ncc1-n1cc([C@H]2CC[C@H](CCN3CCN(c4ccc(C5CCC(=O)NC5=O)cc4)CC3)CC2)nn1 (some centres unmarked) = Condition not met

----------
# assayed_system: IRAK4 (Homo sapiens)
# Construct: endogenous in cells; host or cells: THP-1 cells
# Sequence (Q9NWZ3 1-460): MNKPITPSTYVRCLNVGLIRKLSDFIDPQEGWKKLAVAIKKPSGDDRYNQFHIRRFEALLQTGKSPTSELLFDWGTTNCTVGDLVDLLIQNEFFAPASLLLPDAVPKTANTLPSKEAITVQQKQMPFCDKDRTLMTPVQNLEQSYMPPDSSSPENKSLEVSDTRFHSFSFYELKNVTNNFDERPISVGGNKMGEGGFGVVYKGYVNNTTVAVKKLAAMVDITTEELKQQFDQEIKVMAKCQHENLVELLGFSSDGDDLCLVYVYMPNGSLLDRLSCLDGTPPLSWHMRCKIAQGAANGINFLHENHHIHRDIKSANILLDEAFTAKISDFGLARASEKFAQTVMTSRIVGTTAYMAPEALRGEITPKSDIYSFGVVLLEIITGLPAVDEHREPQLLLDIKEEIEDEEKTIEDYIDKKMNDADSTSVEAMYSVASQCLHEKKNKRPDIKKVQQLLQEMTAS
# assay_procedure: LVL THP1 HTRF (THP1 Homogeneous Time Resolved Fluorescence)
# Assay type: cell-based
# experimental_setup: THP1 cells, 18 h incubation with compound, read-out: LVL THP1 HTRF EC50
Quick reference: DC50 of the listed items.
endpoint_label: DC50 (nM)

- C[C@H](C#N)Nc1cc(-n2ncc3cc(C#N)cnc32)ncc1C(=O)N[C@H]1CC[C@H](CCN2CCC(c3ccc([C@@]4(F)CCC(=O)NC4=O)cc3)CC2)CC1 (single isomer, unassigned) [P-430]: 5.5
- COc1cc([C@@]2(C)CCC(=O)NC2=O)ccc1N1CCN(CC[C@H]2CC[C@H](c3cn(-c4cnc(-n5ncc6cc(C#N)c(N)nc65)cc4N[C@H](C)C#N)nn3)CC2)C[C@@H]1C (single isomer, unassigned) [P-303]: 111
